Cited source for all entries: ChEMBL document CHEMBL3769405

# Protocol: AUC(infinity) in Sprague-Dawley rat at 1 mg/kg, iv
# Assay type: ADME, organism-based
# Parameters: dose 1 mg/kg, time infinity, route intravenous
# Condition Summary: in vivo
Give measured AUC(0-inf) for each item. Keep answers brief.
Quick note: give the figure in ng·h/mL, leave out the unit.

Kindly indicate its recorded AUC(0-inf). Item: "CN1C(=O)c2c(nn(Cc3ccc(C(F)(F)F)cc3)c2Nc2ccc(F)cc2)N2C1=N[C@@H]1CCC[C@@H]12" 292

Kindly indicate its recorded AUC(0-inf). Item: CN1C(=O)c2c(nn(Cc3ccc(-c4cccc(F)n4)cc3)c2Nc2ccccc2)N2C1=N[C@@H]1CCC[C@@H]12.O=P(O)(O)O [LENRISPODUN PHOSPHATE] 300

Kindly indicate its recorded AUC(0-inf). Item: "CN1C(=O)c2c(nn(Cc3ccc(-c4ccccn4)cc3)c2Nc2ccccc2)N2C1=N[C@@H]1CCC[C@@H]12" 420

Kindly indicate its recorded AUC(0-inf). Item: "CN1C(=O)c2c(nn(Cc3ccc(C(F)(F)F)cc3)c2Nc2ccccc2)N2C1=N[C@@H]1CCC[C@@H]12" 271
